# Test system: Vcap cells
# Experiment description: CTG cell proliferation assay on Vcap cells (compounds alone or in combination, 5 days)
# Type: cell-based
# Measurement setup: tested compound 10 μM in combination with 1 μM ARN-509
Recorded measurements of Survival rate of Vcap cells, one per entry
The reply should be a number in %, with the unit left off.

Write down the reported Survival rate of Vcap cells (system: Vcap cells) of [2H][C@@]1(N2Cc3c(N)cc(F)cc3C2=O)CCC(=O)NC1=O
39.9

Write down the reported Survival rate of Vcap cells (system: Vcap cells) of [2H][C@]1(N2Cc3c(N)cc(F)cc3C2=O)CCC(=O)NC1=O
27.0

Write down the reported Survival rate of Vcap cells (system: Vcap cells) of Nc1cc(F)cc2c1CN([C@H]1CCC(=O)NC1=O)C2=O
38.3

Write down the reported Survival rate of Vcap cells (system: Vcap cells) of [2H][C@]1(N2Cc3c(OCc4ccc(CN5CCOCC5)cc4F)cccc3C2=O)CCC(=O)NC1=O
37.3

Write down the reported Survival rate of Vcap cells (system: Vcap cells) of Nc1cc(F)cc2c1CN(C1CCC(=O)NC1=O)C2=O (stereo not shown)
24.5

Write down the reported Survival rate of Vcap cells (system: Vcap cells) of Nc1cc(F)cc2c1CN([C@@H]1CCC(=O)NC1=O)C2=O
38.3

Write down the reported Survival rate of Vcap cells (system: Vcap cells) of [2H]C1(N2Cc3c(N)cc(F)cc3C2=O)CCC(=O)NC1=O (stereo not shown)
37.8

###

Recorded measurements of Survival rate of LNCap cells, one per entry
# Tested on: LNCap cells
# Experiment description: CTG cell proliferation assay on LNCap cells (method of Effect embodiment 1)
# Format: cell-based
# Measurement setup: tested compound alone, 0.1 μM
The reply should be a number in %, with the unit left off.

# example entries with known answers
- Compound: "CNC(=O)c1ccc(N2C(=S)N(c3cnc(C#N)c(C(F)(F)F)c3)C(=O)C23CCC3)cc1F [ARN-509, reference compound]"
  Survival rate of LNCap cells (%): 105.2
- Compound: "[2H][C@]1(N2Cc3c(N)cc(F)cc3C2=O)CCC(=O)NC1=O"
  Survival rate of LNCap cells (%): 102.9
- Compound: "C[C@]12CC[C@H](O)CC1=CC[C@@H]1[C@@H]2CC[C@]2(C)C(n3cnc4ccccc43)=CC[C@@H]12 [Galeterone, reference compound]"
  Survival rate of LNCap cells (%): 104.9
- Compound: "CC(=O)O[C@H]1CC[C@@]2(C)C(=CC[C@@H]3[C@@H]2CC[C@]2(C)C(c4cccnc4)=CC[C@@H]32)C1 [Abiraterone acetate, reference compound]"
  Survival rate of LNCap cells (%): 109.2
- Compound: "Nc1cc(F)cc2c1CN(C1CCC(=O)NC1=O)C2=O (stereo not drawn)"
  Survival rate of LNCap cells (%): 99.6

# context switch: different compound, same Survival rate of LNCap cells
Write down the reported Survival rate of LNCap cells (system: LNCap cells) of CNC(=O)c1ccc(N2C(=S)N(c3ccc(C#N)c(C(F)(F)F)c3)C(=O)C2(C)C)cc1F [Enzalutamide, reference compound]
101.5

###

Recorded measurements of Survival rate of LNCap cells, one per entry
# Tested on: LNCap cells
# Experiment description: CTG cell proliferation assay on LNCap cells (method of Effect embodiment 1)
# Format: cell-based
# Measurement setup: tested compound alone, 10 μM
The reply should be a number in %, with the unit left off.

- Molecule: "CC(=O)O[C@H]1CC[C@@]2(C)C(=CC[C@@H]3[C@@H]2CC[C@]2(C)C(c4cccnc4)=CC[C@@H]32)C1 [Abiraterone acetate, reference compound]"
  Survival rate of LNCap cells [%]: 45.2
- Molecule: "[2H][C@]1(N2Cc3c(N)cc(F)cc3C2=O)CCC(=O)NC1=O"
  Survival rate of LNCap cells [%]: 40.8

Provide measured Survival rate of LNCap cells value, entry: Nc1cc(F)cc2c1CN(C1CCC(=O)NC1=O)C2=O (stereo not drawn)
42.4

Provide measured Survival rate of LNCap cells value, entry: CNC(=O)c1ccc(N2C(=S)N(c3cnc(C#N)c(C(F)(F)F)c3)C(=O)C23CCC3)cc1F [ARN-509, reference compound]
60.2

Provide measured Survival rate of LNCap cells value, entry: C[C@]12CC[C@H](O)CC1=CC[C@@H]1[C@@H]2CC[C@]2(C)C(n3cnc4ccccc43)=CC[C@@H]12 [Galeterone, reference compound]
24.2

Provide measured Survival rate of LNCap cells value, entry: CNC(=O)c1ccc(N2C(=S)N(c3ccc(C#N)c(C(F)(F)F)c3)C(=O)C2(C)C)cc1F [Enzalutamide, reference compound]
59.3
